assay: physchem; conditions: pH 6.8, aqueous buffer, thermodynamic from solid

>  <molecule>
O=C(O[C@@H]1Cc2c(O)cc(O)cc2O[C@@H]1c1cc(O)c(O)c(O)c1)c1cc(O)c(O)c(O)c1 [EGCG, Epigallocatechin gallate]

>  <measurementUnit>
mg/mL

>  <solubility at 24 h>
24

$$$$
